system: CCRIS mutagenicity, Ames/micronucleus/aberration tests; assay: CCRIS mutagenicity studies; details: Test System: AMES SALMONELLA TYPHIMURIUM; Strain/Indicator: TA100; Metabolic Activation: NONE; Method: PREINCUBATION
The source made the active and inactive calls. How the calls were made is not given here.
Outcomes: active, inactive

- Compound: "Cc1cc(=O)n(-c2ccccc2)n1C"
  Label Class: "inactive"
- Compound: "CCc1cc2ccccc2c2ccc3c(c12)[C@@H]1O[C@@H]1[C@H](O)[C@H]3O"
  Label Class: "active"
- Compound: "O=[N+]([O-])c1ccc2c(c1)Cc1cccc([N+](=O)[O-])c1-2"
  Label Class: "active"
- Compound: "BrCCCCCBr"
  Label Class: "inactive"
- Compound: "CC\\C=C/C=C\\C=C/C=C\\C=C/OCCC"
  Label Class: "active"
- Compound: "Cc1cc2ccccc2c2ccc3c(c12)[C@H]1O[C@H]1[C@@H](O)[C@H]3O"
  Label Class: "active"
- Compound: "CCC(=O)OCc1cccc([N+](=O)[O-])c1"
  Label Class: "inactive"
- Compound: "N[C@H](Cc1ccccc1)C(=O)O"
  Label Class: "inactive"
- Compound: "Cc1ccc(Cl)cc1"
  Label Class: "inactive"
- Compound: "CCCCOCCCC"
  Label Class: "inactive"
- Compound: "[O-][n+]1cc2ncccc2cn1"
  Label Class: "inactive"
- Compound: "CC(C)(C)ON=O"
  Label Class: "active"
- Compound: "CC(C)[N+](C)(CCOC(=O)C1c2ccccc2Oc2ccccc21)C(C)C"
  Label Class: "inactive"
- Compound: "NC(=O)CC1CO1 (stereo not given)"
  Label Class: "active"
- Compound: "COP(=S)(OC)SCn1nnc2ccccc2c1=O"
  Label Class: "inactive"
- Compound: "C1CSCN1"
  Label Class: "active"
- Compound: "CC(O)CN(CC(C)O)N=O (stereo not given)"
  Label Class: "inactive"
- Compound: "C=C(C)C(=O)OCCCCCCCCCC"
  Label Class: "inactive"
- Compound: "Clc1ccc(CCC2CO2)cc1 (stereo not given)"
  Label Class: "inactive"
- Compound: "N[C@@H](Cc1ccc(N(CCCl)CCCl)cc1)C(=O)O"
  Label Class: "active"
- Compound: "Cc1ccc2cc3ccc4ccccc4c3nc2c1"
  Label Class: "active"
- Compound: "O=C1C=Cc2c(ccc3ccccc23)C1=O"
  Label Class: "inactive"
- Compound: "Cc1ccc(NO)cc1C"
  Label Class: "active"
- Compound: "Cc1cccc2cc3ccc4ccccc4c3nc12"
  Label Class: "inactive"
- Compound: "BrCC(Br)C1CCC(Br)C(Br)C1 (stereo not given)"
  Label Class: "inactive"
- Compound: "COc1cc(NC(C)CCCN)c2ncccc2c1 (stereo not given)"
  Label Class: "inactive"
- Compound: "O=[N+]([O-])c1cccc(CBr)c1"
  Label Class: "inactive"
- Compound: "O=P1(NCCCl)OCCCN1CCCl (stereo not given)"
  Label Class: "active"
- Compound: "O=C(O)c1cc(Cl)ccc1Cl"
  Label Class: "inactive"
- Compound: "CCCCOCCOP(=O)(OCCOCCCC)OCCOCCCC"
  Label Class: "inactive"

---

test system: CCRIS mutagenicity, Ames/micronucleus/aberration tests; assay: CCRIS mutagenicity studies; settings: Test System: AMES SALMONELLA TYPHIMURIUM; Strain/Indicator: TA98; Metabolic Activation: RAT, LIVER, S-9, AROCLOR 1254 (10%); Method: PREINCUBATION
Active and inactive are the calls of the source. How the calls were made is not given here.
Possible outcomes: active, inactive

- Structure Smiles: "Nc1ccc(Sc2ccc(N)cc2)cc1"
  Label Class: "active"
- Structure Smiles: "CC(Cl)(Cl)[N+](=O)[O-]"
  Label Class: "inactive"
- Structure Smiles: "O=P(OCCCl)(OCCCl)OCCCl"
  Label Class: "inactive"
- Structure Smiles: "c1ccc(N(c2ccccc2)c2ccccc2)cc1"
  Label Class: "inactive"
- Structure Smiles: "CCCCCCCCCCCC(=O)O"
  Label Class: "inactive"
- Structure Smiles: "CCCCCCCCOC(=O)c1ccccc1C(=O)OCCCCCCCC"
  Label Class: "inactive"
- Structure Smiles: "CC[C@H]1CN2CCc3cc(OC)c(OC)cc3[C@@H]2C[C@@H]1C[C@H]1NCCc2cc(OC)c(OC)cc21"
  Label Class: "inactive"
- Structure Smiles: "O=C(O)c1ccc2c(c1)C(=O)OC2=O"
  Label Class: "inactive"
- Structure Smiles: "Cc1ccc(N)cc1O"
  Label Class: "active"
- Structure Smiles: "CC(=O)/C=C/c1ccco1"
  Label Class: "inactive"
- Structure Smiles: "CCCCCC"
  Label Class: "inactive"
- Structure Smiles: "Nc1cccc(Cl)c1"
  Label Class: "inactive"

---

test system: CCRIS mutagenicity, Ames/micronucleus/aberration tests; experiment: CCRIS mutagenicity studies; conditions: End Point: IN VITRO MICRONUCLEUS; Test System: CHO CELLS; Metabolic Activation: RAT, LIVER, S-9, AROCLOR 1254
The source made the active and inactive calls. How the calls were made is not given here.
Outcomes: yes (1) = active, no (0) = inactive

- Compound: "O=P1(N(CCCl)CCCl)NCCCO1 (centres undefined)"
  Tested On: "CCRIS mutagenicity, Ames/micronucleus/aberration tests"
  Label Class: "yes (1)"
- Compound: "c1cc2ccc3cccc4ccc(c1)c2c34"
  Tested On: "CCRIS mutagenicity, Ames/micronucleus/aberration tests"
  Label Class: "no (0)"
- Compound: "Oc1ccccc1"
  Tested On: "CCRIS mutagenicity, Ames/micronucleus/aberration tests"
  Label Class: "yes (1)"
- Compound: "COS(C)(=O)=O"
  Tested On: "CCRIS mutagenicity, Ames/micronucleus/aberration tests"
  Label Class: "yes (1)"

---

system: CCRIS mutagenicity, Ames/micronucleus/aberration tests; assay: CCRIS mutagenicity studies; conditions: Test System: AMES SALMONELLA TYPHIMURIUM; Strain/Indicator: TA1535; Metabolic Activation: NONE; Method: STANDARD PLATE
Calls of active or inactive are those of the source. No rule for the calls is given here.
Outcomes: active, inactive

- Compound: "O=S(=O)(c1ccc(O)cc1)c1ccc(O)cc1"
  Label Class: "inactive"
- Compound: "O=[N+]([O-])c1ccc(-c2nc3sccn3c2[N+](=O)[O-])cc1"
  Label Class: "inactive"
- Compound: "CC(=O)OCN(CCCCl)N=O"
  Label Class: "active"
- Compound: "CC(=O)C1(c2ccccc2)CCNCC1"
  Label Class: "inactive"
- Compound: "C[n+]1c2n(c(=O)c3ccccc31)CCc1c-2[nH]c2ccccc12"
  Label Class: "inactive"
- Compound: "O=C(c1ccc([N+](=O)[O-])cc1)n1ncc(Cl)c(Cl)c1=O"
  Label Class: "active"
- Compound: "O=[N+]([O-])c1ccc2nscc2c1"
  Label Class: "active"
- Compound: "Cc1ccc(N=NN(C)C)cc1"
  Label Class: "inactive"
- Compound: "O=C1OC(O)C(C(Cl)Cl)=C1Cl (stereo unspecified)"
  Label Class: "active"
- Compound: "CC(=O)Nc1ccc(OC(=O)c2ccccc2OC(C)=O)cc1"
  Label Class: "inactive"
- Compound: "Cc1ccc(S(=O)(=O)n2ncc(Cl)c(Cl)c2=O)cc1"
  Label Class: "inactive"
- Compound: "Clc1cc(Cl)nc(Cl)n1"
  Label Class: "inactive"
- Compound: "CN=C=O"
  Label Class: "inactive"
- Compound: "c1ccc(Cc2ccc(OCC3CO3)cc2)cc1 (stereo unspecified)"
  Label Class: "active"
- Compound: "c1ccc2nccnc2c1"
  Label Class: "inactive"
- Compound: "COc1ccccc1/C=C/C=O"
  Label Class: "inactive"
- Compound: "[N-]=[N+]=CC(=O)NCC(=O)NN"
  Label Class: "active"
- Compound: "CCOP(=S)(OCC)SCCSCC"
  Label Class: "active"
- Compound: "C1O[C@@H]1[C@H]1CO1"
  Label Class: "active"
- Compound: "O=C(NC(Cc1cc(=O)[nH]c2ccccc12)C(=O)O)c1ccc(Cl)cc1 (stereo unspecified)"
  Label Class: "inactive"
- Compound: "CC(=O)N(CC(O)CN(C(C)=O)c1c(I)c(C(=O)NCC(O)CO)c(I)c(C(=O)NCC(O)CO)c1I)c1c(I)c(C(=O)NCC(O)CO)c(I)c(C(=O)NCC(O)CO)c1I (stereo unspecified)"
  Label Class: "inactive"
- Compound: "COc1cccc2c1C(=O)c1c(O)c3c(c(O)c1C2=O)C[C@@](O)(C(C)=O)C[C@@H]3O[C@H]1C[C@H](N)[C@H](O)[C@H](C)O1"
  Label Class: "inactive"
- Compound: "CCOC(=O)CC(SP(=S)(OC)OC)C(=O)OCC (stereo unspecified)"
  Label Class: "inactive"
- Compound: "O=C(NCCCl)Sc1ncnc2nc[nH]c12"
  Label Class: "active"
- Compound: "Cc1ccc(C(C)(C)C)c(O)c1C(O)c1ncc([N+](=O)[O-])n1C (stereo unspecified)"
  Label Class: "inactive"
- Compound: "CCN(CCCl)CCCNc1c2ccc(Cl)cc2nc2ccc(OC)nc12"
  Label Class: "inactive"
